Could you please report measured EC50/EC50WTprot for the items listed next?
- assayed target: PSGL-1(ECD)-hFc1 M119A protein (Sino Biological) (human)
- Sequence (chain, as listed by the source M119A M119A): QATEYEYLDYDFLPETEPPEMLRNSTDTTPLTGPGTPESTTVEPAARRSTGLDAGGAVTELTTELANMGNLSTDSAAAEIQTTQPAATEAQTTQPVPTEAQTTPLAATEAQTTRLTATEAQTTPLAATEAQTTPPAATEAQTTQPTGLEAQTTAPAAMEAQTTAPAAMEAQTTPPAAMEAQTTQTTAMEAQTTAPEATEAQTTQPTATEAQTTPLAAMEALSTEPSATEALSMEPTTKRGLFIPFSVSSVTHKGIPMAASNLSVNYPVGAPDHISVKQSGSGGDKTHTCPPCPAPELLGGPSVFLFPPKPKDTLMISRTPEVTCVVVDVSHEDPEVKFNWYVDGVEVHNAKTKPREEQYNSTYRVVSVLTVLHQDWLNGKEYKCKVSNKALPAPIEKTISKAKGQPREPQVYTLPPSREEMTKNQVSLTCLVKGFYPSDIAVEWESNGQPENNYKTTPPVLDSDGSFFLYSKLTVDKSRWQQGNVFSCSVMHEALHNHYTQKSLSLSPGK
- assay notes: ELISA; against WT PSGL-1(ECD)-hFc1
Give bare numbers, in fold.

1. 19L04 (antibody, IgG4, V domains shown, From mouse immunisation; only variable domains given) VH: QIQLVQSGPELKKPGETVKISCKASGYTFTTYGMSWVKQAPGKGLKWMGWINTYSGVPTYADDFKGRFAFSLETSASTAYLQINNLKIEDTATYFCARHYYGSHYFDYWGQGTTLTVSS VL: DIMMTQSPSSLAMSVGQKVTLRCKSSQSLLNSSNQKNYLAWYQQKPGQSPKLLVYFASTRESGVPVRFIGSGSGTDFTLTISSMQAEDLADYFCQQHYFSPLTFGAGTKLELK :: 1.26
2. 19N05 (antibody, V domains shown, From mouse immunisation; only variable domains given) VH: QIQLVQSGPELKKPGETVKISCKASGYTFTTYGMSWVKQAPGKGLKWMGWINTYSGVPTFADDFKGRFAFSLETSASTAYLQINNLKNEDTATFFCARNYYGNHYFDYWGQGTTLTVSS VL: DVQITQSPSYLAASPGETISINCRASNNINKYLAWYQEKPGKTNKLLIYSGSTLQSGIPSRFSGSGSGTDFTLTISSLEPEDFAMYHCQQHNYYPLTFGAGTKLELK :: 1.34

With those in mind, consider the next binder.
Data request: I'd like to know its EC50/EC50WTprot. The binder in question is 18F17 (antibody, V domains shown, Non-functional anti-PSGL-1 mAb (Verseau); only variable domains given) VH: QVTLKESGPGILQPSQTLSLTCSFSGFSLSTFGMGVGWIRQPSGKGLEWLAHIWWDDDKYYNPALKSRLTISKDTSKNQVFLKIANVDTADTATYYCAIYYDYGVGFDYWGQGTTLTVSS VL: DIVMTQAAPSVPVTPGESVSISCRSSKSLLHSNGYTFLYWFLQRPGQSPQLLIYRMSNLASGVPDRFSGSGSGTAFTLRISRVEAEDVGVYYCMQHLEYPFTFGTGTKLEIK
Data returned: 0.74
